biological target: GHSR-1a (HEK293/GHSR1a cell line) (Homo sapiens); construct: expressed in transfected cells; host or cells: HEK293/GHSR1a cell line; assay: Ghrelin antagonist potency (IC50) with calcium FLIPR assay, ghrelin 10 nM; format: cell-based; conditions: HEK293/GHSR1a, ghrelin 10 nM, read-out: Activity IC50 (ghrelin antagonist potency)
Sequence (Q92847 whole entry): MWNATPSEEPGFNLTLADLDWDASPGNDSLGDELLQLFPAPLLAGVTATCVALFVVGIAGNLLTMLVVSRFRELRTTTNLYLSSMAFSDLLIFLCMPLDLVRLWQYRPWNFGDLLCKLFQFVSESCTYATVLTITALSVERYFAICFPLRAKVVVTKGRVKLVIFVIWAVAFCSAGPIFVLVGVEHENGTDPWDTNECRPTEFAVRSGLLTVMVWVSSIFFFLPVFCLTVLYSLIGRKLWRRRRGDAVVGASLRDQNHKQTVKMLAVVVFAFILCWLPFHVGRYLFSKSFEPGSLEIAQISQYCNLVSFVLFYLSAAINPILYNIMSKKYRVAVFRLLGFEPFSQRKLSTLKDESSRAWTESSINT
Let's look at some compounds and their measured log10(IC50).
TEST_READOUT: log10(IC50) (log10 of the value in nM)

COMPOUND	log10(IC50)
CC(NC(=O)Nc1ccc(S(=O)(=O)Cc2ccc3c(c2)CNC3)cc1F)c1ccccc1F.Cl (stereo not shown)	1.44
COc1cccc(OC)c1C(C)NC(=O)Nc1ccc(S(=O)(=O)Cc2ccc3c(c2)CN(C)C3)cc1 (stereo not shown)	1.84
CC(NC(=O)Nc1ccc(S(=O)(=O)Nc2ccc3c(c2)CCN(C)C3)cc1)c1ccccc1Cl (stereo not shown)	0.96
CC(NC(=O)Nc1ccc(S(=O)(=O)Cc2cnc3c(c2)CN(C)C3)cc1)c1ccccc1 (stereo not shown)	2.39
CC(NC(=O)Nc1ccc(S(=O)(=O)Cc2ccc3c(c2)CNC3)cc1)c1ccccc1Cl.Cl (stereo not shown)	0.20
CC1c2ccccc2CCN1C(=O)Nc1ccc(S(=O)(=O)Cc2ccc3c(c2)CNC3)cc1 (stereo not shown)	3.04
CC(NC(=O)Nc1ccc(S(=O)(=O)Cc2cc3c(s2)CN(C)C3)cc1)c1ccccc1 (stereo not shown)	1.68
CC(NC(=O)Nc1ccc(S(=O)(=O)Cc2ccncc2)cc1)c1ccccc1 (stereo not shown)	2.96
C[C@@H](NC(=O)Nc1ccc(S(=O)(=O)Cc2ccc3c(c2F)CN(C)C3)cc1)c1ccccc1	0.92
O=C(NCc1ccccc1)Nc1ccc2c(c1)CC(c1ccc3c(c1)CNC3)S2(=O)=O (stereo not shown)	0.70
COc1cccc(C(C)NC(=O)Nc2ccc(S(=O)(=O)Cc3ccc4c(c3)CN(C)C4)cc2)c1 (stereo not shown) [H1326]	0.99
CC(NC(=O)Nc1ccc(S(=O)(=O)Cc2cc3c(cc2F)CN(C)CC3)cc1)c1cccc(Cl)c1Cl (stereo not shown)	1.33
CCc1ccc(Cl)c(C(C)NC(=O)Nc2ccc(S(=O)(=O)Cc3ccc4c(c3)CN(C)C4)cc2)c1 (stereo not shown)	1.60
CC(NC(=O)Nc1ccc(S(=O)(=O)Cc2ccc3c(c2)CN(C)C3)cc1)c1ccc(F)cc1 (stereo not shown)	1.92
C[C@@H](NC(=O)Nc1ccc(S(=O)(=O)Cc2cc(F)c3c(c2)CNC3)cc1)c1ccccc1.Cl	1.72
CC(NC(=O)Nc1ccc(S(=O)(=O)Cc2ccc3c(c2)CNC3)cc1)c1c(F)cccc1F (stereo not shown)	1.02
CC(NC(=O)Nc1ccc(S(=O)(=O)Cc2ccc3c(c2)CNC3)cc1)c1cc(N2CCOCC2)ccc1Cl (stereo not shown)	2.58
CCc1ccc(Cl)c(C(=O)NC(=O)Nc2ccc(S(=O)(=O)Nc3ccc4c(c3)CNC4)cc2)c1	2.43
COc1cc(S(=O)(=O)Cc2ccc3c(c2)CN(C)C3)ccc1NC(=O)NC(C)c1cccc2ccccc12 (stereo not shown)	0.91
CC(NC(=O)Nc1ccc(S(=O)(=O)Cc2ccc3c(c2)CN(C)C3)cc1O)c1ccccc1 (stereo not shown)	1.48
COc1cc(S(=O)(=O)Cc2ccc3c(c2)CN(C)C3)ccc1NC(=O)NC(C)c1ccccc1OC (stereo not shown)	1.10
CC(c1ccccc1)N(C)C(=O)Nc1ccc(S(=O)(=O)Cc2ccc3c(c2)CNC3)cc1F (stereo not shown)	3.31
C[C@@H](NC(=O)Nc1ccc(S(=O)(=O)Cc2ccc3c(c2F)CNC3)cc1)c1ccccc1	1.03
CCc1ccc(Cl)c(C(=O)NC(=O)Nc2ccc(S(=O)(=O)Nc3ccc4c(c3)CNCC4)cc2)c1	2.39
CC(NC(=O)Nc1ccc(S(=O)(=O)Cc2ccc3c(c2)C(N2CCCC2)CC3)cc1)c1ccccc1 (stereo not shown)	3.52
C[C@H](NC(=O)Nc1ccc(S(=O)(=O)Cc2ccc3c(c2)C2CCC3N2C)cc1)c1ccccc1 (stereo partly shown)	3.58
COc1cc(S(=O)(=O)Cc2ccc3c(c2)CC(C)N(C)C3)ccc1NC(=O)NC(C)c1ccccc1 (stereo not shown)	0.64
CC(NC(=O)Nc1ccc(S(=O)(=O)Cc2cc3c(cc2F)CNCC3)cc1)c1cccc(Cl)c1Cl (stereo not shown)	0.60
CC(NC(=O)Nc1ccc(S(=O)(=O)Cc2ccc3c(c2)CN(C2CCOC2)C3)cc1)c1ccccc1.O=C(O)C(F)(F)F (stereo not shown)	0.67
CC(NC(=O)Nc1ccc(S(=O)(=O)Cc2ccc3c(c2)CN(C)C3)cc1)c1cccc2ccccc12 (stereo not shown)	0.76
